Where these numbers come from: patent US8178873B2

Give measured melting point for each item. Keep answers brief.
Answer in °C, number only, no unit symbol.

# compound `Cc1ccsc1-c1ccc2c(C#C[Si](C(C)C)(C(C)C)C(C)C)c3cc(-c4sccc4C)ccc3c(C#C[Si](C(C)C)(C(C)C)C(C)C)c2c1` ; its melting point = 237.6

Briefly, melting point measured for `CCCCCCc1ccc(-c2ccc3c(C#C[Si](C(C)C)(C(C)C)C(C)C)c4cc(-c5ccc(CCCCCC)s5)ccc4c(C#C[Si](C(C)C)(C(C)C)C(C)C)c3c2)s1` : 190.3

# melting point (compound: `CC(C)[Si](C#Cc1c2ccc(-c3ccc(-c4cccs4)s3)cc2c(C#C[Si](C(C)C)(C(C)C)C(C)C)c2ccc(-c3ccc(-c4cccs4)s3)cc12)(C(C)C)C(C)C` ) is 299

Kindly note the recorded melting point for `CCc1ccc(-c2ccc3c(C#C[Si](C(C)C)(C(C)C)C(C)C)c4cc(-c5ccc(CC)s5)ccc4c(C#C[Si](C(C)C)(C(C)C)C(C)C)c3c2)s1` , which is 274.6
